- TARGET SYSTEM: human erythrocyte AChE (hAChE) (Homo sapiens)
- Sequence (P22303 32-617 isoform P22303-2 limits assumed): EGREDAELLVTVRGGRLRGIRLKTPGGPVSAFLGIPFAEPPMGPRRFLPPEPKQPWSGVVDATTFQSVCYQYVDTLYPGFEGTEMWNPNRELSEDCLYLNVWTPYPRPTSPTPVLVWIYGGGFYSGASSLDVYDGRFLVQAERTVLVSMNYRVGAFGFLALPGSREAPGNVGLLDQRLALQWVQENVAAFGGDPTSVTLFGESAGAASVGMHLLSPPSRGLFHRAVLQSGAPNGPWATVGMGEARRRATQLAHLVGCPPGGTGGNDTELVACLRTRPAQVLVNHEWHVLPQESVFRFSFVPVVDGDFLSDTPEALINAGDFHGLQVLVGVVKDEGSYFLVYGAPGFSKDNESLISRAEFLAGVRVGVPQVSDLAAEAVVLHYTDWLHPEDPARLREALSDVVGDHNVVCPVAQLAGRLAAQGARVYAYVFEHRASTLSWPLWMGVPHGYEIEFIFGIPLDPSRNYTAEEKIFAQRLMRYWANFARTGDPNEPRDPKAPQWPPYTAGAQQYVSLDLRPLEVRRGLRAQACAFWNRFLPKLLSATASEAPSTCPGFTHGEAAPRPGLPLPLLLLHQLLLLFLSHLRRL
Measured IC50 accompanies every entry in the list below.

COMPOUND: O=P(Oc1ccccc1)(Oc1ccccc1)Oc1cc(OP(=O)(Oc2ccccc2)Oc2ccccc2)c2ccccc2c1 [X, reference compound]
IC50: 26.4 µM
//
COMPOUND: O=P(Oc1ccccc1)(Oc1ccccc1)Oc1ccc(OP(=O)(Oc2ccccc2)Oc2ccccc2)c(Cl)c1 [Y, reference compound]
IC50: 41.1 µM
//
COMPOUND: O=P(Oc1ccccc1)(Oc1ccccc1)Oc1ccc(S(=O)(=O)c2ccc(OP(=O)(Oc3ccccc3)Oc3ccccc3)cc2)cc1 [Compound 17]
IC50: 30.2 µM
//
COMPOUND: O=P(Oc1ccccc1)(Oc1ccccc1)Oc1ccc2ccc(OP(=O)(Oc3ccccc3)Oc3ccccc3)cc2c1 [Compound 15]
IC50: 28.8 µM
//
COMPOUND: CC(=O)c1cc(OP(=O)(Oc2ccccc2)Oc2ccccc2)ccc1OP(=O)(Oc1ccccc1)Oc1ccccc1 [Z, reference compound]
IC50: 29.8 µM
//
COMPOUND: O=P(Oc1ccccc1)(Oc1ccccc1)Oc1ccc(C2(c3ccc(OP(=O)(Oc4ccccc4)Oc4ccccc4)cc3)CCCCC2)cc1 [Compound 20]
IC50: 35.5 µM
//
COMPOUND: O=P(Oc1ccccc1)(Oc1ccccc1)Oc1ccc(OP(=O)(Oc2ccccc2)Oc2ccccc2)c2ccccc12 [Compound 14]
IC50: 27.4 µM
//
COMPOUND: O=P(Oc1ccccc1)(Oc1ccccc1)Oc1ccc(C2(c3ccc(OP(=O)(Oc4ccccc4)Oc4ccccc4)cc3)c3ccccc3-c3ccccc32)cc1 [Compound 21]
IC50: 29.6 µM
//
COMPOUND: O=P(Oc1ccccc1)(Oc1ccccc1)Oc1ccc(C(c2ccc(OP(=O)(Oc3ccccc3)Oc3ccccc3)cc2)(C(F)(F)F)C(F)(F)F)cc1 [Compound 18]
IC50: 34 µM
//
COMPOUND: CC(C)(C)c1cc(OP(=O)(Oc2ccccc2)Oc2ccccc2)ccc1OP(=O)(Oc1ccccc1)Oc1ccccc1 [Compound 12]
IC50: 23.8 µM
//
COMPOUND: CC(c1ccccc1)(c1ccc(OP(=O)(Oc2ccccc2)Oc2ccccc2)cc1)c1ccc(OP(=O)(Oc2ccccc2)Oc2ccccc2)cc1 [Compound 19]
IC50: 46 µM
//
COMPOUND: O=C(c1ccc(OP(=O)(Oc2ccccc2)Oc2ccccc2)cc1)c1ccc(OP(=O)(Oc2ccccc2)Oc2ccccc2)cc1 [Compound 16]
IC50: 39.8 µM
//
COMPOUND: O=P(Oc1ccccc1)(Oc1ccccc1)Oc1ccc(OP(=O)(Oc2ccccc2)Oc2ccccc2)c(-c2ccccc2)c1 [Compound 11]
IC50: 35.5 µM
//
COMPOUND: CC(c1ccc(OP(=O)(Oc2ccccc2)Oc2ccccc2)cc1)(c1ccc(OP(=O)(Oc2ccccc2)Oc2ccccc2)cc1)c1ccc(OP(=O)(Oc2ccccc2)Oc2ccccc2)cc1 [Compound 23]
IC50: 19.8 µM
//
COMPOUND: CC(C)(C)c1cc(OP(=O)(Oc2ccccc2)Oc2ccccc2)c(C(C)(C)C)cc1OP(=O)(Oc1ccccc1)Oc1ccccc1 [Compound 13]
IC50: 27.1 µM

----------
- TARGET SYSTEM: BuChE from equine serum (eqBuChE) (Equus caballus, UniProt P81908)
- Construct: The BuChE freeze-dried from equine serum (eqBuChE, Sigma Aldrich)
- Sequence (P81908 whole entry): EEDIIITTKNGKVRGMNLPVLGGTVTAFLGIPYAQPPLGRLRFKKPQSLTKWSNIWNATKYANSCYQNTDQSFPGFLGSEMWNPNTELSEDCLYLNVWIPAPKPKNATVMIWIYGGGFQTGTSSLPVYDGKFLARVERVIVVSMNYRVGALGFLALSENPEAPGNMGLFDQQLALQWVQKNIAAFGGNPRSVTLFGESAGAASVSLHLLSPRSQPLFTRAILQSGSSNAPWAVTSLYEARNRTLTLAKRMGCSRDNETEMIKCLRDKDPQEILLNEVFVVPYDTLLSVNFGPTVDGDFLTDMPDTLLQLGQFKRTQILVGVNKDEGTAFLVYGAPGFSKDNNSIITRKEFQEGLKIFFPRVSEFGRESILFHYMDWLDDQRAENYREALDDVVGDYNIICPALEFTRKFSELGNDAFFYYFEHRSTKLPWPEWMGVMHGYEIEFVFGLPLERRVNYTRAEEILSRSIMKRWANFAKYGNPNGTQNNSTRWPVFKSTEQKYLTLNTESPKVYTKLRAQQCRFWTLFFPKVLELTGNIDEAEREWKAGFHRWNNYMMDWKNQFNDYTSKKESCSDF
- TEST DESCRIPTION: butyrylcholinesterase inhibition, Ellman spectrometric method
QUANTITY MEASURED: IC50 (µM)

COMPOUND: O=P(Oc1ccccc1)(Oc1ccccc1)Oc1cc(OP(=O)(Oc2ccccc2)Oc2ccccc2)c2ccccc2c1 [X, reference compound]
TARGET SYSTEM: BuChE from equine serum (eqBuChE) (Equus caballus, UniProt P81908)
QUANTITY MEASURED: IC50
RESULT: 7.21
--
COMPOUND: O=P(Oc1ccccc1)(Oc1ccccc1)Oc1ccc(C2(c3ccc(OP(=O)(Oc4ccccc4)Oc4ccccc4)cc3)CCCCC2)cc1 [Compound 20]
TARGET SYSTEM: BuChE from equine serum (eqBuChE) (Equus caballus, UniProt P81908)
QUANTITY MEASURED: IC50
RESULT: 399
--
COMPOUND: CC(c1ccccc1)(c1ccc(OP(=O)(Oc2ccccc2)Oc2ccccc2)cc1)c1ccc(OP(=O)(Oc2ccccc2)Oc2ccccc2)cc1 [Compound 19]
TARGET SYSTEM: BuChE from equine serum (eqBuChE) (Equus caballus, UniProt P81908)
QUANTITY MEASURED: IC50
RESULT: 147
--
COMPOUND: O=P(Oc1ccccc1)(Oc1ccccc1)Oc1ccc2ccc(OP(=O)(Oc3ccccc3)Oc3ccccc3)cc2c1 [Compound 15]
TARGET SYSTEM: BuChE from equine serum (eqBuChE) (Equus caballus, UniProt P81908)
QUANTITY MEASURED: IC50
RESULT: 90.1
--
COMPOUND: O=P(Oc1ccccc1)(Oc1ccccc1)Oc1ccc(S(=O)(=O)c2ccc(OP(=O)(Oc3ccccc3)Oc3ccccc3)cc2)cc1 [Compound 17]
TARGET SYSTEM: BuChE from equine serum (eqBuChE) (Equus caballus, UniProt P81908)
QUANTITY MEASURED: IC50
RESULT: 96.4
--
COMPOUND: O=P(Oc1ccccc1)(Oc1ccccc1)Oc1ccc(C(c2ccc(OP(=O)(Oc3ccccc3)Oc3ccccc3)cc2)(C(F)(F)F)C(F)(F)F)cc1 [Compound 18]
TARGET SYSTEM: BuChE from equine serum (eqBuChE) (Equus caballus, UniProt P81908)
QUANTITY MEASURED: IC50
RESULT: 141

Origin of the recorded values: patent US20230242830A1
